Catalogue of variants with associated self-cleavage
B1: Hairpin Ribozyme (parent)
chain: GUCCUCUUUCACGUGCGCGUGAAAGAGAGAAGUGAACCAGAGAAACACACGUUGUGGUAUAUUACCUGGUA

- Variants of: B1
- protocol.summary: self-cleavage, relative activity (ratio to wild type); higher = more cleavage; co-transcriptional

{"mutation.spec": "U2A A23G", "self-cleavage": 0.332}
{"mutation.spec": "C10U G13A", "self-cleavage": 0.662}

Ask: Input C46G U60A , output reported self-cleavage.
Result: 0.091

Ask: Input C37G U60A , output reported self-cleavage.
Result: 0.197

Ask: Input G15A G32A , output reported self-cleavage.
Result: 0.145

Ask: Input A22G G29A , output reported self-cleavage.
Result: 0.121
